protocol: qHTS assay for environmental chemicals that activate the Aryl hydrocarbon Receptor (AhR) signaling pathway (AID 651777); note: % of control where 0% means no effect; nearly all actives have a fitted effect of over 15% in size
setup-conditions: 1A2-DRE human hepatoma cells, luciferase, 24 h; active compounds read high
Records with an inconclusive call do not appear.
metric-name: activation (%)
Response body: numeric value in %, unit text excluded.

Consider the worked cases shown below.
compound=C=C(C)C(=O)OCCCCCCCCCC unit_tag=% experimental_value=-0.81
compound=Cc1ccc(C)o1 unit_tag=% experimental_value=-0.971
compound=O=Nc1ccc(NO)cc1 unit_tag=% experimental_value=6.63
compound=Nc1cccc(N)c1 unit_tag=% experimental_value=4.51

Query block: Give the value of activation reported for the following: "CSc1ccc(C=O)cc1"
Result block: 0.018

Query block: Give the value of activation reported for the following: "NC(=O)c1cccc([N+](=O)[O-])c1"
Result block: 0.373

Query block: Give the value of activation reported for the following: "C=C(C)C(=O)OC"
Result block: 0.279

Query block: Give the value of activation reported for the following: "Cc1ccc(N(C)C)cc1"
Result block: 6.07

Query block: Give the value of activation reported for the following: "Cc1c(C(=O)O)cccc1[N+](=O)[O-]"
Result block: 1.63

Query block: Give the value of activation reported for the following: "C=CCOC(=O)CCCCCCCC"
Result block: -2.14

Query block: Give the value of activation reported for the following: "Cc1ccc2ncccc2c1"
Result block: 3.02

Query block: Give the value of activation reported for the following: "O=[N+]([O-])c1ccc(CCO)cc1"
Result block: 0.416

Values from PubChem BioAssay (NCATS)
